Values compiled from patent US20080032921A1.

# target under test: HLA-DR DRB1*0404 (human)
# method description: competition with 125I-labelled reference peptide on purified HLA-DR
property measured: IC50

INSERT INTO measurements (binder, value_observed) VALUES
  ('YIQMCTELKLSDYEG (modifications not checked) [Flu.NP.43 peptide …]', '1640 nM');
